# Test system: cGMP-PDE I
# PROTOCOL DETAILS: cGMP-PDE I inhibitory activity (cyclic nucleotide hydrolysis, isolated PDE isozyme)
# Format: biochemical, various animal species and man
# TEST CONTEXT: 0.1 μM
Catalogue of Percent Inhibition cGMP-PDE I values
Numeric only. Scale: %

MOLECULE | RECORDED NUMBER
CCc1[nH]n(C2CCCC2)c2nc(-c3ccnc(C)c3)nc(=O)c1-2 | 22

[ask] Indicate its recorded Percent Inhibition cGMP-PDE I; the molecule in question is CCc1nn(C2CCCC2)c2nc(-c3cc(C)nc(-n4ccnc4)c3)[nH]c(=O)c12 [Example 120, hydrate]
[reply] 16

[ask] Indicate its recorded Percent Inhibition cGMP-PDE I; the molecule in question is CCc1[nH]n(C2CCCC2)c2nc(-c3ccnc(N4CCOCC4)c3)nc(=O)c1-2 [Example 129c]
[reply] 35

[ask] Indicate its recorded Percent Inhibition cGMP-PDE I; the molecule in question is CCc1[nH]n(C2CCCC2)c2nc(-c3ccc4nccn4c3)nc(=O)c1-2 [Example 16c]
[reply] 35

* * *

# Tested on: cGMP-PDE I
# PROTOCOL DETAILS: cGMP-PDE I inhibitory activity (cyclic nucleotide hydrolysis, isolated PDE isozyme)
# Format: biochemical, various animal species and man
# TEST CONTEXT: 1 μM
MEASURED ATTRIBUTE: Percent Inhibition cGMP-PDE I (%)
Numeric only. Scale: %

[ask] // fetch Percent Inhibition cGMP-PDE I for N#Cc1[nH]n(C2CCCC2)c2nc(-c3ccncc3)nc(=O)c1-2 ; system: cGMP-PDE I
[reply] 9

* * *

# System: cGMP-PDE I
# PROTOCOL DETAILS: cGMP-PDE I inhibitory activity (cyclic nucleotide hydrolysis, isolated PDE isozyme)
# Format: biochemical, various animal species and man
# TEST CONTEXT: 10 μM
MEASURED ATTRIBUTE: Percent Inhibition cGMP-PDE I (%)
Numeric only. Scale: %

Use the examples below as a reference point.
COMPOUND | SYSTEM NAME | Percent Inhibition cGMP-PDE I (%)
Cc1nn(C2CCCC2)c2nc(C3CCNCC3)[nH]c(=O)c12 [Example 109, hydrate] | cGMP-PDE I | 13
O=c1nc(-c2ccncc2)nc2n(C3CCCC3)[nH]c(Cc3ccccc3)c1-2 [Example 15e] | cGMP-PDE I | 43
Cc1nn(Cc2ccc(C#N)cc2)c2nc(-c3ccncc3)[nH]c(=O)c12 [Example 85] | cGMP-PDE I | 42

[ask] Indicate its recorded Percent Inhibition cGMP-PDE I; the compound in question is Cc1[nH]n(Cc2ccc(C(=O)O)cc2)c2nc(-c3ccncc3)nc(=O)c1-2 [Example 111]
[reply] 24

[ask] Indicate its recorded Percent Inhibition cGMP-PDE I; the compound in question is Cc1n[nH]c2nc(-c3ccncc3)[nH]c(=O)c12 [Example 76]
[reply] 24

[ask] Indicate its recorded Percent Inhibition cGMP-PDE I; the compound in question is Cc1[nH]n(Cc2cccc(C(N)=O)c2)c2nc(-c3ccncc3)nc(=O)c1-2 [Example 113]
[reply] 48

[ask] Indicate its recorded Percent Inhibition cGMP-PDE I; the compound in question is Cc1nn(Cc2ccccc2)c2nc(-c3ccncc3)[nH]c(=O)c12 [Example 77]
[reply] 80

[ask] Indicate its recorded Percent Inhibition cGMP-PDE I; the compound in question is N#Cc1[nH]n(C2CCCC2)c2nc(-c3ccncc3)nc(=O)c1-2 [Example 100]
[reply] 35

[ask] Indicate its recorded Percent Inhibition cGMP-PDE I; the compound in question is CC(=O)N1CCC(c2nc3n(C4CCCC4)[nH]c(C)c-3c(=O)n2)CC1 [Example 115]
[reply] 51

* * *

Catalogue of Percent Inhibition cGMP-PDE I values
# Tested on: cGMP-PDE I
# PROTOCOL DETAILS: cGMP-PDE I inhibitory activity (cyclic nucleotide hydrolysis, isolated PDE isozyme)
# Format: biochemical, various animal species and man
# TEST CONTEXT: 1 μM
Reply with a number, then the unit it belongs to.

Use the examples below as a reference point.
COMPOUND | MEASURED ATTRIBUTE | RESULT
Cc1[nH]n(Cc2cc([N+](=O)[O-])ccc2Cl)c2nc(-c3ccncc3)nc(=O)c1-2 [Example 106] | Percent Inhibition cGMP-PDE I | 24%
CCc1nn(C2CCCC2)c2nc(C3CCN(C)c4ccccc43)[nH]c(=O)c12 (centres unmarked) [Example 10b] | Percent Inhibition cGMP-PDE I | 62%
CCc1[nH]n(C2CCCC2)c2nc(-c3cccnc3)nc(=O)c1-2 [Example 137] | Percent Inhibition cGMP-PDE I | 64%
CCc1[nH]n(C2CCCC2)c2nc(-c3cccc(C)n3)nc(=O)c1-2 [Example 2f] | Percent Inhibition cGMP-PDE I | 7%
CC(C)(C)c1nn(C2CCCC2)c2nc(-c3ccncc3)[nH]c(=O)c12 [Example 95] | Percent Inhibition cGMP-PDE I | 9%

[ask] Indicate its recorded Percent Inhibition cGMP-PDE I; the compound in question is CCc1[nH]n(C2CCCC2)c2nc(-c3ccc4nccn4c3)nc(=O)c1-2 [Example 16c]
[reply] 69%

[ask] Indicate its recorded Percent Inhibition cGMP-PDE I; the compound in question is CCc1[nH]n(C2CCCC2)c2nc(-c3ccnc(-n4ccnc4)c3)nc(=O)c1-2 [Example 121c]
[reply] 68%

[ask] Indicate its recorded Percent Inhibition cGMP-PDE I; the compound in question is Cc1[nH]n(C2CCCC2C)c2nc(-c3ccncc3)nc(=O)c1-2 (centres unmarked) [Example 1e]
[reply] 59%

[ask] Indicate its recorded Percent Inhibition cGMP-PDE I; the compound in question is Cc1[nH]n(Cc2cccc(C(N)=O)c2)c2nc(-c3ccncc3)nc(=O)c1-2 [Example 113]
[reply] 0%

[ask] Indicate its recorded Percent Inhibition cGMP-PDE I; the compound in question is Cc1nn(CC2CCCC2)c2nc(-c3ccncc3)[nH]c(=O)c12 [Example 89]
[reply] 17%

* * *

Catalogue of change in vivo at 10 mg/kg values
# Tested on: Spontaneously hypertensive rats (SHR)
# PROTOCOL DETAILS: Antihypertensive activity in conscious spontaneously hypertensive rats (SHR), iv
# Format: in vivo
# TEST CONTEXT: Rattus norvegicus, 5 min, 10 mg/kg, 5 minutes after dose, cumulative dosing, read-out: % change in mean arterial pressure
Numeric only. Scale: %

Use the examples below as a reference point.
COMPOUND | RECORDED NUMBER
CCOc1cnccc1-c1nc2n(C3CCCC3)[nH]c(C(F)(F)F)c-2c(=O)n1 [Example 127c] | -14
CCOc1cnccc1-c1nc2n(C3CCCC3)[nH]c(CC)c-2c(=O)n1 [Example 119d] | -36
CCc1[nH]n(C2CCCC2)c2nc(-c3ccncc3OC)nc(=O)c1-2 [Example 128c] | -48
CC(C)(C)n1[nH]c(Cc2ccncc2)c2c(=O)nc(-c3ccncc3)nc1-2 [Example 123d] | -7
CCc1nn(C2CCCC2)c2nc(-c3ccnc(OCCN4CCOCC4)c3)[nH]c(=O)c12 [Example 124c, hydrate] | -24
COc1ccc(Cc2[nH]n(C(C)(C)C)c3nc(-c4ccncc4)nc(=O)c2-3)cc1OC | -2

Now for the compound whose change in vivo at 10 mg/kg we want.
[ask] Indicate its recorded change in vivo at 10 mg/kg; the compound in question is CCc1[nH]n(C2CCCC2)c2nc(-c3ccncc3OC(C)CC)nc(=O)c1-2 (stereo not shown) [Example 132b]
[reply] -12

* * *

# System: cGMP-PDE I
# PROTOCOL DETAILS: cGMP-PDE I inhibitory activity (cyclic nucleotide hydrolysis, isolated PDE isozyme)
# Type: biochemical, various animal species and man
# TEST CONTEXT: 10 μM
Classification field: 1 = Percent Inhibition cGMP-PDE I at or over 50%; 0 = Percent Inhibition cGMP-PDE I under 50%.

[ask] Given the entry CN(C)c1[nH]n(C2CCCC2)c2nc(-c3ccncc3)nc(=O)c1-2 [Example 20c] , answer whether its Percent Inhibition cGMP-PDE I meets or surpasses 50%.
[reply] 1

[ask] Given the entry Cc1nn(Cc2cccc(C#N)c2)c2nc(-c3ccncc3)[nH]c(=O)c12 , answer whether its Percent Inhibition cGMP-PDE I meets or surpasses 50%.
[reply] 0

[ask] Given the entry Cc1[nH]n(Cc2ccc(C(N)=O)cc2)c2nc(-c3ccncc3)nc(=O)c1-2 , answer whether its Percent Inhibition cGMP-PDE I meets or surpasses 50%.
[reply] 1

[ask] Given the entry O=c1[nH]c(-c2ccncc2)nc2c1c([N+](=O)[O-])nn2C1CCCC1 , answer whether its Percent Inhibition cGMP-PDE I meets or surpasses 50%.
[reply] 0

[ask] Given the entry CCc1[nH]n(C2CCCC2)c2nc(-c3cccc(C)n3)nc(=O)c1-2 , answer whether its Percent Inhibition cGMP-PDE I meets or surpasses 50%.
[reply] 1

[ask] Given the entry Cc1[nH]n(Cc2cc(NS(=O)(=O)c3cccc4cccnc34)ccc2Cl)c2nc(-c3ccncc3)nc(=O)c1-2 , answer whether its Percent Inhibition cGMP-PDE I meets or surpasses 50%.
[reply] 1

[ask] Given the entry Cc1[nH]n(Cc2cc([N+](=O)[O-])ccc2Cl)c2nc(-c3ccncc3)nc(=O)c1-2 , answer whether its Percent Inhibition cGMP-PDE I meets or surpasses 50%.
[reply] 1

[ask] Given the entry Cc1[nH]n(Cc2cccc(C(=O)O)c2)c2nc(-c3ccncc3)nc(=O)c1-2 , answer whether its Percent Inhibition cGMP-PDE I meets or surpasses 50%.
[reply] 1
